- System: glucose-6-phosphate dehydrogenase-6-phosphogluconolactonase (Plasmodium falciparum 3D7)
- Assay Details: concentration-dependent PfGluPho enzyme inhibition – biochemical, fluorescence intensity, dose response (AID 504765)
- Condition Info: Recombinant PfG6PD enzyme, fluorescence intensity (NADPH)
Activity calls are given as the source filed them. How the calls were made is not given here.
// classify into Y for active, N for inactive

Any idea what this test logged for CN(C)c1cccc2c1c(NC(=O)c1ccc(Cl)cc1)nn2C ? Y

Tell me the recorded outcome of this test for NC(=O)N/N=C/c1ccc(-n2nncc2-c2ccc(Cl)cc2)cc1 . Y

Can you look up the reported call for Cc1cc(C(=O)O)ccc1-n1c(C)cc(C=C2C(=O)c3ccccc3C2=O)c1C for me? Y

What did this assay record as the result for O=C(CCC(=O)Nc1ccccc1Cl)N/N=C/c1ccccc1 ? Y

Assay outcome for O=S(=O)(Nc1ccccc1F)c1cccc(NC(=S)NCCN2CCOCC2)c1 : what was it? Y

Hi team, can someone confirm the assay call for COC(=O)[C@H](C)NC(=O)c1cc2c(cn1)[nH]c1ccccc12 ? N

Hey, what did the test say about C[n+]1c(-c2ccccc2)cc2c(=Cc3ccc([N+](=O)[O-])cc3)c3ccccc3n21 ? N

How did this test come out for C=CCSc1nc2sc3c(c2c(=O)n1CC)CCc1ccccc1-3 ? N

Assay outcome for O=C(CN1C(=O)C2C3C=CC(C3)C2C1=O)OCC(=O)c1ccc([N+](=O)[O-])cc1 (stereo not drawn) : what was it? Y

Any idea what this test logged for c1ccc(-c2cn3c(n2)CCc2ccc4cccnc4c2-3)cc1 ? Y

Call for entry CNCc1ccccc1Sc1cc(O)ccc1O : Y

What did the test return for Cc1cc(C)nc(NC(N)=NCCc2ccccc2)n1 ? Y

Test call for this compound, please: COc1cc(/C=N/Nc2nncn2N)ccc1OCc1c(C)no[n+]1[O-] Y

Could you kindly confirm the outcome this assay logged for O=C(O)c1ccc(-n2c(-c3cc(-c4ccco4)[nH]n3)n[nH]c2=S)cc1 ? N

// outcome(item) with item = CC(=O)OCCCNc1cc(Sc2nc3ccccc3s2)c2nonc2c1[N+](=O)[O-] Y

Look up the recorded call for CN1CCc2cccc3c2[C@@H]1Cc1ccc(O)c(O)c1-3 in this test. Y

Recorded call for COC1(OC)C=CC(=O)C=C1NC(=O)c1ccccc1OC(C)=O ? Y

Record request — test call for CC(C)Nc1ccc(Nc2ccccc2)cc1 Y

Hey, what did the test say about Cc1cccc(NC2=C(NC(=O)c3ccccc3)C(=O)c3ccccc3C2=O)c1 ? Y

Any idea what this test logged for CC(NC(=O)c1sc2cc([N+](=O)[O-])ccc2c1Cl)C(C)(C)C (stereo not drawn) ? Y

Called result for Cc1ccc(Nc2cc(C)c(O)c(C)c2)cc1 Y

Called result for Oc1ccc(-c2cn3c(n2)SCC3)cc1O Y

I would be grateful if you could indicate the recorded call for CCC(C)N(CCNC(=O)c1ccc2c(c1)NC(=O)c1ccccc1S2)C1CCCCC1 (stereo not drawn) . Y
